pIC50, M-phase inducer phosphatase 1 (Homo sapiens, UniProt P30304), per-entry values.
Reminder that pIC50 means the negative base-10 logarithm of the concentration expressed in mol/L.

What value of pIC50 has been recorded for this entry: "CC1=C(SCCO)C(=O)c2ccccc2C1=O"
5.34

# iterate: "Cc1ccc(/N=C2N=C(O)/C(=C/C=C/c3ccco3)S\2)cc1C"
5.37

# iterate: "C=CCn1c(SCC(=O)c2ccc(O)c(O)c2)nnc1-c1cccc(Cl)c1"
5.48

# iterate: N#CC1=C(S)N(c2ccccc2)C(/C=C/c2ccc(-c3ccc(Cl)cc3)o2)NC1=O (centres undefined)
5.48
